Target: CDK2/CyclinA (Homo sapiens, UniProt P24941)
Construct: purchased Proqinase
Assay: Kinase assay determining CDK2/CyclinA activity
Type: biochemical
Conditions: read-out: CDK2 (activity range)
pIC50: −log10 of the molar value.
measured-endpoint: pIC50

                                   compound  observed_measurement
0  COc1ccc(OC)c(-c2cc(Nc3ccc(NC(=O)c4ccc(N)cc4)cc3)ncn2)c1 [(57)]          3.60 to 5.00
1  COc1ccccc1-c1cc(Nc2ccc(NC(=O)CC(C)(C)C)cc2)ncn1 [(42)]          5.00 to 6.00
2  COc1ccccc1-c1cc(Nc2ccc(NC(=O)CC3CCCCN3)cc2)ncn1 (stereo not shown) [(59)]          5.00 to 6.00
3  COc1cccc(-c2cc(Nc3ccc(C)c(NS(C)(=O)=O)c3)ncn2)c1 [(100)]          5.00 to 6.00
4  COc1ccc(C(C)C)cc1-c1cc(Nc2ccc(NC(=O)c3ccc(N)cc3)cc2)ncn1 [(35)]          3.60 to 5.00
5  Cc1ccc(Nc2cc(-c3cccc(N(C)C)c3)ncn2)cc1NS(C)(=O)=O [(157)]          5.00 to 6.00
6  CCOc1ccccc1-c1cc(Nc2ccc(NC(=O)c3ccc(N)cc3)cc2)ncn1 [(55)]          5.00 to 6.00
7  c1ccc(COc2ccccc2-c2cc(NCCc3ccncc3)ncn2)cc1 [(7)]          5.00 to 6.00
8  CC(C)Oc1ccccc1-c1cc(Nc2ccc(NC(=O)[C@@H]3CCCCN3)cc2)ncn1 [(188)]          5.00 to 6.00
9  Cc1ccc(Nc2cc(-c3cccc(N)c3)ncn2)cc1NS(=O)(=O)c1cn(C)cn1 [(144)]          6.00 to 9.00

Taken from patent US8084457B2.
